Test system: Escherichia coli
assayName: Antibacterial activity against Escherichia coli ATCC 35218 assessed as reduction in microbial growth incubated for 20 to 22 hrs by CLSI based analysis
Format: functional
experimentalParameters: time 20-22 hrs
MIC by entry:
endpointName: MIC (µg/mL)

compoundsmiles=CO[C@@H](CNC(=O)[C@H](NC(=O)[C@H](O)[C@H](C)O)[C@H](O)c1cncn1C)[C@H](O)[C@H](O)C(=O)N(C)[C@@H](Cc1ccc(F)cc1)C(=O)NCC(=O)N[C@H](C(=O)N[C@@H](CO)C(=O)N[C@H](C(=O)N[C@H](C(=O)N[C@@H](CO)C(=O)O)C(C)(C)C)C(C)(C)O)C(C)(C)O qualifiersign== experimentalresult=0.5
compoundsmiles=CO[C@@H](CNC(=O)[C@H](NC(=O)[C@H](O)[C@H](C)O)[C@H](O)c1cncn1C)[C@H](O)[C@H](O)C(=O)N(C)[C@@H](Cc1ccccc1)C(=O)NCC(=O)N[C@H](C(=O)N[C@@H](CO)C(=O)O)C(C)(C)O qualifiersign=> experimentalresult=64

---

Tested on: Escherichia coli
assayName: Antibacterial activity against Escherichia coli ATCC 25922 infected in Swiss albino mouse thigh infection model at 10 mg/kg, iv measured after 1 hr
Assay type: functional, organism-based
Calls of active or inactive are those of the source. The calls are words filed in the database; no cut-off is given here.
endpointName: Activity

compoundsmiles=CO[C@@H](CNC(=O)[C@H](NC(=O)[C@H](O)[C@H](C)O)[C@H](O)c1cncn1C)[C@H](O)[C@H](O)C(=O)N(C)[C@@H](Cc1ccccc1)C(=O)NCC(=O)N[C@H](C(=O)N[C@@H](CO)C(=O)N[C@H](C(=O)N[C@H](C(=O)N[C@@H](CCC(=O)NCc1cc(=O)c(O)cn1O)C(=O)O)C(C)(C)C)C(C)(C)O)C(C)(C)O endpointname=Activity experimentalresult=Active
compoundsmiles=CO[C@@H](CNC(=O)[C@H](NC(=O)[C@H](O)[C@H](C)O)[C@H](O)c1cncn1C)[C@H](O)[C@H](O)C(=O)N(C)[C@@H](Cc1ccccc1)C(=O)NCC(=O)N[C@H](C(=O)N[C@@H](CO)C(=O)N[C@H](C(=O)N[C@H](C(=O)N[C@@H](CO)C(=O)N[C@@H](CCC(=O)NCc1cc(=O)c(O)cn1O)C(=O)O)C(C)(C)C)C(C)(C)O)C(C)(C)O endpointname=Activity experimentalresult=Active
compoundsmiles=CO[C@@H](CNC(=O)[C@H](NC(=O)[C@H](O)[C@H](C)O)[C@H](O)c1cncn1C)[C@H](O)[C@H](O)C(=O)N(C)[C@@H](Cc1ccc(F)cc1)C(=O)NCC(=O)N[C@H](C(=O)N[C@@H](CO)C(=O)N[C@H](C(=O)N[C@H](C(=O)N[C@@H](CO)C(=O)N[C@@H](CN)C(=O)NCc1cc(=O)c(O)cn1O)C(C)(C)C)C(C)(C)O)C(C)(C)O endpointname=Activity experimentalresult=Active

---

assayName: AUClast in Swiss mouse Lung at 3 mg/kg, iv measured upto 24 hrs by LC-MS/MS analysis
Type: ADME, organism-based
Design: time < 24 hrs, dose 3 mg/kg, route iv
endpointName: AUC(0-t) at 24 h (ng·h/mL)

compoundsmiles=CO[C@@H](CNC(=O)[C@H](NC(=O)[C@H](O)[C@H](C)O)[C@H](O)c1cncn1C)[C@H](O)[C@H](O)C(=O)N(C)[C@@H](Cc1ccccc1)C(=O)NCC(=O)N[C@H](C(=O)N[C@@H](CO)C(=O)N[C@H](C(=O)N[C@H](C(=O)N[C@@H](CC(=O)O)C(=O)N1CCC[C@H]1C(=O)NCc1cc(=O)c(O)cn1O)C(C)(C)C)C(C)(C)O)C(C)(C)O endpointname="AUC(0-t) at 24 h" units=ng·h/mL experimentalresult=1010

---

Test system: Klebsiella pneumoniae
assayName: Antibacterial activity against wild type Klebsiella pneumoniae ATCC 13883 assessed as reduction in microbial growth incubated for 20 to 22 hrs by CLSI based analysis
Format: functional
experimentalParameters: time 20-22 hrs
Numbered stars: 1 amine (or outer) side, 2 acyl side, 3 side chain; on linkers, the order of the positions; unused ones are H or OH. Square brackets hold non-standard residues; d marks the D form. Peptide text beside a SMILES is read from it. * marks the point of attachment. Ava(2S,3R-(OH)2,4S-OMe) = CO[C@@H](CN[*:1])[C@H](O)[C@H](O)C(=O)[*:2]; dHis(βS-OH,π-Me) = Cn1cncc1[C@@H](O)[C@@H](N)C(=O)O; Butanoyl(2R-OH,3S-OH) = C[C@H](O)[C@@H](O)C(=O)*; Val(3-OH) = CC(C)(O)[C@H](N)C(=O)O; NMeF = CN[C@@H](Cc1ccccc1)C(=O)O
endpointName: MIC

compound=CO[C@@H](CNC(=O)[C@H](NC(=O)[C@H](O)[C@H](C)O)[C@H](O)c1cncn1C)[C@H](O)[C@H](O)C(=O)N(C)[C@@H](Cc1ccccc1)C(=O)NCC(=O)N[C@H](C(=O)N[C@@H](CO)C(=O)N[C@H](C(=O)N[C@H](C(=O)N[C@@H](CO)C(=O)NCc1cc(=O)c(O)cn1O)C(C)(C)C)C(C)(C)O)C(C)(C)O experimentalresult="0.03 µg/mL"
compound=CO[C@@H](CNC(=O)[C@H](NC(=O)[C@H](O)[C@H](C)O)[C@H](O)c1cncn1C)[C@H](O)[C@H](O)C(=O)N(C)[C@@H](Cc1ccc(F)cc1)C(=O)NCC(=O)N[C@H](C(=O)N[C@@H](CO)C(=O)N[C@H](C(=O)N[C@H](C(=O)N[C@@H](CCC(=O)NCc1cc(=O)c(O)cn1O)C(=O)O)C(C)(C)C)C(C)(C)O)C(C)(C)O experimentalresult="0.12 µg/mL"
compound=CO[C@@H](CNC(=O)[C@H](NC(=O)[C@H](O)[C@H](C)O)[C@H](O)c1cncn1C)[C@H](O)[C@H](O)C(=O)N(C)[C@@H](Cc1ccccc1)C(=O)NCC(=O)N[C@H](C(=O)N[C@@H](CO)C(=O)N[C@H](C(=O)N[C@H](C(=O)N[C@@H](CO)C(=O)N[C@H](CCC(=O)NCc1cc(=O)c(O)cn1O)C(=O)O)C(C)(C)C)C(C)(C)O)C(C)(C)O experimentalresult="0.03 µg/mL"
compound=CO[C@@H](CNC(=O)[C@H](NC(=O)[C@H](O)[C@H](C)O)[C@H](O)c1cncn1C)[C@H](O)[C@H](O)C(=O)N(C)[C@@H](Cc1ccccc1)C(=O)NCC(=O)N[C@H](C(=O)N[C@@H](CO)C(=O)N[C@H](C(=O)N[C@H](C(=O)N[C@@H](CO)C(=O)N[C@@H](CN)C(=O)NCc1cc(=O)c(O)cn1O)C(C)(C)C)C(C)(C)O)C(C)(C)O experimentalresult="0.25 µg/mL"
compound=CO[C@@H](CNC(=O)[C@H](NC(=O)[C@H](O)[C@H](C)O)[C@H](O)c1cncn1C)[C@H](O)[C@H](O)C(=O)N(C)[C@@H](Cc1ccc(F)cc1)C(=O)NCC(=O)N[C@H](C(=O)N[C@@H](CO)C(=O)N[C@H](C(=O)N[C@H](C(=O)N[C@@H](CO)C(=O)NCc1cccc(O)c1O)C(C)(C)C)C(C)(C)O)C(C)(C)O experimentalresult="0.5 µg/mL"
compound="CO[C@@H](CNC(=O)[C@H](NC(=O)[C@H](O)[C@H](C)O)[C@H](O)c1cncn1C)[C@H](O)[C@H](O)C(=O)N(C)[C@@H](Cc1ccccc1)C(=O)NCC(=O)N[C@H](C(=O)N[C@@H](CO)C(=O)N[C@H](C(=O)N[C@@H](CC(C)C)C(=O)N[C@@H](CO)C(=O)O)C(C)(C)O)C(C)(C)O ({Butanoyl(2R-OH,3S-OH)}-[dHis(βS-OH,π-Me)][Ava(2S,3R-(OH)2,4S-OMe)][NMeF]G[Val(3-OH)]S[Val(3-OH)]LS-OH)" experimentalresult="16 µg/mL"

---

assayName: Drug excretion in urine of Swiss mouse at 3 mg/kg, iv measured upto 24 hrs by LC-MS/MS analysis
Type: ADME, organism-based
experimentalParameters: read-out: Drug excretion
endpointName: dose excreted at 24 h (%)

compoundsmiles=CO[C@@H](CNC(=O)[C@H](NC(=O)[C@H](O)[C@H](C)O)[C@H](O)c1cncn1C)[C@H](O)[C@H](O)C(=O)N(C)[C@@H](Cc1ccccc1)C(=O)NCC(=O)N[C@H](C(=O)N[C@@H](CO)C(=O)N[C@H](C(=O)N[C@H](C(=O)N[C@@H](CC(=O)O)C(=O)N1CCC[C@H]1C(=O)NCc1cc(=O)c(O)cn1O)C(C)(C)C)C(C)(C)O)C(C)(C)O experimentalresult=65

---

assayName: Metabolic stability in mouse kidney assessed as parent compound remaining measured after 1 hrs by UPLC-MS analysis
Assay type: ADME, tissue-based
experimentalParameters: read-out: Stability
remaining at 1 h by entry:
endpointName: remaining at 1 h (%)

compoundsmiles=CO[C@@H](CNC(=O)[C@H](NC(=O)[C@H](O)[C@H](C)O)[C@H](O)c1cncn1C)[C@H](O)[C@H](O)C(=O)N(C)[C@@H](Cc1ccccc1)C(=O)NCC(=O)N[C@H](C(=O)N[C@@H](CO)C(=O)N[C@H](C(=O)N[C@H](C(=O)N[C@@H](CO)C(=O)N[C@@H](CCC(=O)NCc1cc(=O)c(O)cn1O)C(=O)O)C(C)(C)C)C(C)(C)O)C(C)(C)O experimentalresult=92
compoundsmiles=CO[C@@H](CNC(=O)[C@H](NC(=O)[C@H](O)[C@H](C)O)[C@H](O)c1cncn1C)[C@H](O)[C@H](O)C(=O)N(C)[C@@H](Cc1ccc(F)cc1)C(=O)NCC(=O)N[C@H](C(=O)N[C@@H](CO)C(=O)N[C@H](C(=O)N[C@H](C(=O)N[C@@H](CO)C(=O)NCc1ccc(O)c(O)c1)C(C)(C)C)C(C)(C)O)C(C)(C)O experimentalresult=6
compoundsmiles=CO[C@@H](CNC(=O)[C@H](NC(=O)[C@H](O)[C@H](C)O)[C@H](O)c1cncn1C)[C@H](O)[C@H](O)C(=O)N(C)[C@@H](Cc1ccc(F)cc1)C(=O)NCC(=O)N[C@H](C(=O)N[C@@H](CO)C(=O)N[C@H](C(=O)N[C@H](C(=O)N[C@@H](CO)C(=O)N[C@@H](CN)C(=O)NCc1cc(=O)c(O)cn1O)C(C)(C)C)C(C)(C)O)C(C)(C)O experimentalresult=97
compoundsmiles=CO[C@@H](CNC(=O)[C@H](NC(=O)[C@H](O)[C@H](C)O)[C@H](O)c1cncn1C)[C@H](O)[C@H](O)C(=O)N(C)[C@@H](Cc1ccc(F)cc1)C(=O)NCC(=O)N[C@H](C(=O)N[C@@H](CO)C(=O)N[C@H](C(=O)N[C@H](C(=O)N[C@@H](CO)C(=O)NCc1cccc(O)c1O)C(C)(C)C)C(C)(C)O)C(C)(C)O experimentalresult=11
compoundsmiles=CO[C@@H](CNC(=O)[C@H](NC(=O)[C@H](O)[C@H](C)O)[C@H](O)c1cncn1C)[C@H](O)[C@H](O)C(=O)N(C)[C@@H](Cc1ccc(F)cc1)C(=O)NCC(=O)N[C@H](C(=O)N[C@@H](CO)C(=O)N[C@H](C(=O)N[C@H](C(=O)N[C@@H](CO)C(=O)NCCN)C(C)(C)C)C(C)(C)O)C(C)(C)O experimentalresult=105
compoundsmiles=CO[C@@H](CNC(=O)[C@H](NC(=O)[C@H](O)[C@H](C)O)[C@H](O)c1cncn1C)[C@H](O)[C@H](O)C(=O)N(C)[C@@H](Cc1ccccc1)C(=O)NCC(=O)N[C@H](C(=O)N[C@@H](CO)C(=O)N[C@H](C(=O)N[C@@H](CC(C)C)C(=O)N[C@@H](CO)C(=O)N[C@@H](CCC(=O)NCc1cc(=O)c(O)cn1O)C(=O)O)C(C)(C)O)C(C)(C)O experimentalresult=22

The values you see were collected from ChEMBL document CHEMBL5356971.
